Molecular target: cytochrome C (Equus caballus)
Construct: a reagent produced by NACALAI TESQUE, INC; (Horse Heart, molecular weight 12384) was used; purchased NACALAI TESQUE, INC; host or cells: horse heart (tissue origin)
Sequence (P00004 whole entry): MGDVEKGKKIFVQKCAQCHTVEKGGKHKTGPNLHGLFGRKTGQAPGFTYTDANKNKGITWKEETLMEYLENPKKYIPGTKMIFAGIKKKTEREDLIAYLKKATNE
Assay: Protein long-term stability (IR and UV spectrum), solid sample
Design: species or system Horse
measuredMetric: Protein long-term stability (after 30 days) Stabilizer: Protein = 10:1

input: Recorded Protein long-term stability (after 30 days) Stabilizer: Protein = 10:1 of `NC(CO)(CO)CO.O=C(O)c1ccccc1` , please.
output: ◯

input: Recorded Protein long-term stability (after 30 days) Stabilizer: Protein = 10:1 of CC(O)C(=O)O.CCCCN(CCCC)CCCC [Comparative example 1, Tributyl Ammonium Lactate, reference compound] , please.
output: ×

input: Recorded Protein long-term stability (after 30 days) Stabilizer: Protein = 10:1 of `Br.NC(CO)(CO)CO` , please.
output: ◯

input: Recorded Protein long-term stability (after 30 days) Stabilizer: Protein = 10:1 of CC(=O)[O-].C[N+](C)(C)CCO [Comparative example 2, Choline Acetate, reference compound] , please.
output: ×

---

Settings: 0.25 g compound, 0.50 g water, 0.10 g zinc oxide; visual
measuredMetric: Zinc oxide dispersibility

input: Recorded Zinc oxide dispersibility of NC(CO)(CO)CO [Working example 48] , please.
output: ○ ○ ○ ○

input: Recorded Zinc oxide dispersibility of NC(CO)(CO)CO [Working example 36] , please.
output: ○ ○ ○ ○

input: Recorded Zinc oxide dispersibility of NC(CO)(CO)CO [Working example 28] , please.
output: ○ ○ ○ ○

input: Recorded Zinc oxide dispersibility of NC(CO)(CO)CO [Working example 109] , please.
output: ○ ○ ○ ○

---

Target: urease (Canavalia ensiformis, UniProt P07374)
Sequence (P07374 whole entry, looked up): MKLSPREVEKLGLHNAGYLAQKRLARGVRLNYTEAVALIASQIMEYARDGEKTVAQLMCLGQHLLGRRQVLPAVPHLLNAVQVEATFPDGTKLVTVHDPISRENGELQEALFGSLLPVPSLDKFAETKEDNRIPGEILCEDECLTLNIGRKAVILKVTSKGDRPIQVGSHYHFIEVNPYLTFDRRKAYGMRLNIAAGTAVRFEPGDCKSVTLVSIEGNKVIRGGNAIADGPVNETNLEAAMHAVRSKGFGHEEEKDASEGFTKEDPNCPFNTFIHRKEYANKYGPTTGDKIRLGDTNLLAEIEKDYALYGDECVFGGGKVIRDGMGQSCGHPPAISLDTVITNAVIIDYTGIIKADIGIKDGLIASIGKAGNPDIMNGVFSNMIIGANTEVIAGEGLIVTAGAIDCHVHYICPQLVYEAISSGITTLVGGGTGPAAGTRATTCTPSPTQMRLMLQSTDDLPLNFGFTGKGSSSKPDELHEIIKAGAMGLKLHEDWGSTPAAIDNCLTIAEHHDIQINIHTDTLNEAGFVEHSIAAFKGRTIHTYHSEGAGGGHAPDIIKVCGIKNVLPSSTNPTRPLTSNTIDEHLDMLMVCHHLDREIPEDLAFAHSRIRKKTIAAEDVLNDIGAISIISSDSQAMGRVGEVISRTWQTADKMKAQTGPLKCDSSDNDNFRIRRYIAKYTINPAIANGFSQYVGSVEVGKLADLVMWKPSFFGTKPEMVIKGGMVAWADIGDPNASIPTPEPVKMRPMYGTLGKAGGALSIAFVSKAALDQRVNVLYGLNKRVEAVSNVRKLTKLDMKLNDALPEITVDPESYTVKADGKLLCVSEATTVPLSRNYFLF
Format: biochemical, sword bean
measuredMetric: Enzyme activity retention rate(%) (after 30 days) Stabilizer: Enzyme = 10:1
All answers are understood in %, so give the number only.

input: Recorded Enzyme activity retention rate(%) (after 30 days) Stabilizer: Enzyme = 10:1 of O=C[C@H](O)[C@@H](O)[C@H](O)[C@H](O)CO [Comparative example 4, Glucose, reference compound] , please.
output: 0

---

Biological target: cytochrome C (Equus caballus)
Construct: a reagent produced by NACALAI TESQUE, INC; (Horse Heart, molecular weight 12384) was used; purchased NACALAI TESQUE, INC; host or cells: horse heart (tissue origin)
Assay: Protein long-term stability (IR and UV spectrum), solid sample
Set-up: species or system Horse
Settings: cytochrome C, solid sample; 40° C., 80% RH; after 30 days; Stabilizer:Protein = 0.1:1
measuredMetric: Protein long-term stability (after 30 days) Stabilizer: Protein = 0.1:1

input: Recorded Protein long-term stability (after 30 days) Stabilizer: Protein = 0.1:1 of NC(CO)(CO)CO [Working example 48] , please.
output: ◯

input: Recorded Protein long-term stability (after 30 days) Stabilizer: Protein = 0.1:1 of NC(CO)CO [Working example 26] , please.
output: ◯

input: Recorded Protein long-term stability (after 30 days) Stabilizer: Protein = 0.1:1 of NCC(O)C(O)C(O)C(O)CO (centres unmarked) [Working example 29] , please.
output: ◯

input: Recorded Protein long-term stability (after 30 days) Stabilizer: Protein = 0.1:1 of O=C[C@H](O)[C@@H](O)[C@H](O)[C@H](O)CO [Comparative example 4, Glucose, reference compound] , please.
output: ×

Continuing:
input: Recorded Protein long-term stability (after 30 days) Stabilizer: Protein = 0.1:1 of CCC(N)(CO)CO [Working example 27] , please.
output: ◯ ◯

---

Target: urease (Canavalia ensiformis, UniProt P07374)
Assay type: biochemical, sword bean
Details: solid sample, 40° C., 80% RH, after 30 days, Stabilizer:Enzyme = 10:1
# key: entry, value: Enzyme activity retention rate(%) (after 30 days) Stabilizer: Enzyme = 10:1
All answers are understood in %, so give the number only.

input: Recorded Enzyme activity retention rate(%) (after 30 days) Stabilizer: Enzyme = 10:1 of NCC(O)C(O)C(O)C(O)CO (stereo not drawn) , please.
output: 21

input: Recorded Enzyme activity retention rate(%) (after 30 days) Stabilizer: Enzyme = 10:1 of NC(CO)(CO)CO [Working example 28] , please.
output: 35

input: Recorded Enzyme activity retention rate(%) (after 30 days) Stabilizer: Enzyme = 10:1 of CCC(N)(CO)CO [Working example 35] , please.
output: 22

input: Recorded Enzyme activity retention rate(%) (after 30 days) Stabilizer: Enzyme = 10:1 of `OCCNCCO` , please.
output: 25

input: Recorded Enzyme activity retention rate(%) (after 30 days) Stabilizer: Enzyme = 10:1 of NC(CO)(CO)CO [Working example 3] , please.
output: 53

input: Recorded Enzyme activity retention rate(%) (after 30 days) Stabilizer: Enzyme = 10:1 of `NC(CO)CO` , please.
output: 25

Continuing:
input: Recorded Enzyme activity retention rate(%) (after 30 days) Stabilizer: Enzyme = 10:1 of NC(CO)(CO)CO [Working example 48] , please.
output: 52

input: Recorded Enzyme activity retention rate(%) (after 30 days) Stabilizer: Enzyme = 10:1 of NC(CO)(CO)CO [Working example 83] , please.
output: 38

input: Recorded Enzyme activity retention rate(%) (after 30 days) Stabilizer: Enzyme = 10:1 of CCC(N)(CO)CO [Working example 27] , please.
output: 20

input: Recorded Enzyme activity retention rate(%) (after 30 days) Stabilizer: Enzyme = 10:1 of NC(CO)(CO)CO [Working example 36] , please.
output: 45

input: Recorded Enzyme activity retention rate(%) (after 30 days) Stabilizer: Enzyme = 10:1 of CC(=O)[O-].C[N+](C)(C)CCO [Comparative example 2, Choline Acetate, reference compound] , please.
output: 0

input: Recorded Enzyme activity retention rate(%) (after 30 days) Stabilizer: Enzyme = 10:1 of `NC(CO)(CO)CO.O=C(O)c1ccccc1` , please.
output: 29

---

Target: urease (Canavalia ensiformis)
Format: biochemical, sword bean
Settings: solid sample, 40° C., 80% RH, after 30 days, Stabilizer:Enzyme = 1:1
# key: entry, value: Enzyme activity retention rate(%) (after 30 days) Stabilizer: Enzyme = 1:1
The reply should read as a number followed by its unit.

input: Recorded Enzyme activity retention rate(%) (after 30 days) Stabilizer: Enzyme = 1:1 of `NC(CO)(CO)CO.O=C(O)c1ccccc1` , please.
output: 20%

input: Recorded Enzyme activity retention rate(%) (after 30 days) Stabilizer: Enzyme = 1:1 of CCC(N)(CO)CO [Working example 35] , please.
output: 16%

input: Recorded Enzyme activity retention rate(%) (after 30 days) Stabilizer: Enzyme = 1:1 of `OCCNCCO` , please.
output: 25%

input: Recorded Enzyme activity retention rate(%) (after 30 days) Stabilizer: Enzyme = 1:1 of NC(CO)(CO)CO [Working example 3] , please.
output: 50%

input: Recorded Enzyme activity retention rate(%) (after 30 days) Stabilizer: Enzyme = 1:1 of NCC(O)C(O)C(O)C(O)CO (stereo not drawn) , please.
output: 18%

input: Recorded Enzyme activity retention rate(%) (after 30 days) Stabilizer: Enzyme = 1:1 of `NC(CO)CO` , please.
output: 81%

input: Recorded Enzyme activity retention rate(%) (after 30 days) Stabilizer: Enzyme = 1:1 of NC(CO)(CO)CO [Working example 83] , please.
output: 24%

input: Recorded Enzyme activity retention rate(%) (after 30 days) Stabilizer: Enzyme = 1:1 of CC(=O)[O-].C[N+](C)(C)CCO [Comparative example 2, Choline Acetate, reference compound] , please.
output: 3%

// switching to the query compound
input: Recorded Enzyme activity retention rate(%) (after 30 days) Stabilizer: Enzyme = 1:1 of CCC(N)(CO)CO [Working example 27] , please.
output: 74%

---

Molecular target: urease (Canavalia ensiformis, UniProt P07374)
Assay type: biochemical, sword bean
measuredMetric: Enzyme activity retention rate(%) (after 30 days) Stabilizer: Enzyme = 1:1
All answers are understood in %, so give the number only.

Example compounds with recorded Enzyme activity retention rate(%) (after 30 days) Stabilizer: Enzyme = 1:1:
input: Recorded Enzyme activity retention rate(%) (after 30 days) Stabilizer: Enzyme = 1:1 of O=C[C@H](O)[C@@H](O)[C@H](O)[C@H](O)CO [Comparative example 4, Glucose, reference compound] , please.
output: 0

input: Recorded Enzyme activity retention rate(%) (after 30 days) Stabilizer: Enzyme = 1:1 of CC(O)C(=O)O.CCCCN(CCCC)CCCC [Comparative example 1, Tributyl Ammonium Lactate, reference compound] , please.
output: 0

Continuing:
input: Recorded Enzyme activity retention rate(%) (after 30 days) Stabilizer: Enzyme = 1:1 of Br.NC(CO)(CO)CO [Working example 78] , please.
output: 3

---

Target: urease (Canavalia ensiformis)
Assay type: biochemical, sword bean
measuredMetric: Enzyme activity retention rate(%) (after 30 days) Stabilizer: Enzyme = 10:1
All answers are understood in %, so give the number only.

Example molecules with recorded Enzyme activity retention rate(%) (after 30 days) Stabilizer: Enzyme = 10:1:
input: Recorded Enzyme activity retention rate(%) (after 30 days) Stabilizer: Enzyme = 10:1 of CC(O)C(=O)O.CCCCN(CCCC)CCCC [Comparative example 1, Tributyl Ammonium Lactate, reference compound] , please.
output: 0

input: Recorded Enzyme activity retention rate(%) (after 30 days) Stabilizer: Enzyme = 10:1 of CCCCn1cc[n+](C)c1.[Br-] [Comparative example 3, BMI-Br, reference compound] , please.
output: 0

// switching to the query molecule
input: Recorded Enzyme activity retention rate(%) (after 30 days) Stabilizer: Enzyme = 10:1 of Br.NC(CO)(CO)CO [Working example 78] , please.
output: 18
